Tested on: CD2F1 mice, L1210 leukemia ip, survival T/C
RUN DESCRIPTION: NCI In Vivo Anticancer Drug Screen. Data for tumor model L1210 Leukemia (intraperitoneal) in CD2F1 (CDF1) mice
APPLIED CONDITIONS: endpoint: mean survival time; dose: 75.0 mg/kg/injection; schedule: Q01DX001 (ip); vehicle: other; higher = longer survival
Inconclusive results and toxic doses are left out.
Reported T/C values follow for various compounds

Cc1ccc(S(=O)(=O)NC(=O)C(Cc2ccccc2)c2ccccc2)cc1 (centres undefined) | 96 % of control

Query string: // query T/C value for entry CC(=O)Oc1cccc2c1C(=O)C1(O)C(C=O)=CC3OC(C)(C)OC2(C)C31 (centres undefined)
Result string: 102 % of control

Query string: What about this compound? CCC(C)(C)OC(=O)Nc1ccc(C)c(NC(=O)OC(C)(C)CC)c1
Result string: 86 % of control

Query string: What about this compound? Cc1cc(C(O)(C(=O)O)c2ccccc2)cc(C)c1C (centres undefined)
Result string: 100 % of control
